Ref: ChEMBL document CHEMBL1201862

Tested on: OVCAR-3
TEST SUMMARY: NCI tumour cell line growth inhibition, 48 h
Active and inactive are the calls of the source. No stated cut-off is given here; in the data, active = GI50 up to about 1.1 µM and inactive = higher.
MEASUREMENT LABEL: GI50

>>> df
                              smiles_string      endpoint_result
0  COc1ccccc1Cn1nc(OC)c2cc([N+](=O)[O-])ccc21  > 100 µM (inactive)
1  COc1ccc(-c2cc(=O)c3cc(O)ccc3o2)c(OC)c1OC   18.4 µM (inactive)
2                NC(=O)NNc1nc(-c2ccccc2)cs1  > 100 µM (inactive)
3     Cc1cc(C)n(CN(Cn2nc(C)cc2C)c2ccccc2)n1   30.5 µM (inactive)
4       O=S(=O)(O)c1cc(Cl)c(O)c2ncc(Cl)cc12   69.2 µM (inactive)
5             CO/C=C/c1cc2c(cc1C(OC)OC)OCO2   29.9 µM (inactive)
